assay: inhibitors of mutant huntingtin aggregation, primary screen, imaging, exon1htt(103Q)mCFP cells, high-content imaging (AID 483); conditions: exon1htt(103Q)mCFP cell line, aggregate imaging, at 2 µM; measured here: cell count, toxicity;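 also: compound exposure lasted 3 days before fixation; percent of the per-plate median nuclei count of sample wells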
Label Condition met when nuclei count is at or above 90%; anything below gets Condition not met.

Known results for molecules:
molecule=CCN(CC)CCOC(=O)C1(c2ccc(OC)c(OC)c2)CCCC1 assigned_class="Condition met"
molecule=CC(C)C[C@H](NC(=O)[C@@H]1O[C@H]1C(=O)O)C(=O)NCCCCN=C(N)N assigned_class="Condition met"

Reported nuclei count at or above 90%? CCN(CC)c1ccc(-c2nn3c(-c4cccnc4)nnc3s2)cc1
Condition not met

Reported nuclei count at or above 90%? CC(C)Cc1nc(N2CCN(C(=O)c3ccco3)CC2)c(C#N)c2c1CCC2
Condition met

Reported nuclei count at or above 90%? CCC(C)n1ncn(-c2ccc(N3CCN(c4ccc(OCC5COC(Cn6cncn6)(c6ccc(Cl)cc6Cl)O5)cc4)CC3)cc2)c1=O (stereo not given)
Condition met

----------
Below is a list of entries, each paired with its recorded NADPH fluorescence slope value.
biological target: Voltage-gated potassium channel subunit beta-2 (Rattus norvegicus); experiment: KvBeta positive modulators, primary screen, biochemical, NADPH fluorescence (AID 623); conditions: Recombinant KvBeta, NADPH fluorescence decrease slope, 10 min; at 10 µM; stronger effect = lower value;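 also: fluorescence intensity change per second fitted from 20 to 320 s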
Answer as a number with no unit attached.

molecule=CC(C)CNC(=O)c1c(N)n(/N=C/c2ccccn2)c2nc3ccccc3nc12 data_value=-3.5e-05
molecule=CCOc1nc(-c2ccncc2)nc2ccccc12 data_value=3e-05
molecule="CC(=O)C1=C(O)C(=O)N(Cc2cccnc2)C1c1ccccc1Cl (stereo not given)" data_value=-0.000254
molecule="COC(=O)C1=C(C)N=C2SC(C)C(=O)N2C1c1cccs1 (stereo not given)" data_value=-0.000101

Query molecule follows.
Missing value: NADPH fluorescence slope, Voltage-gated potassium channel subunit beta-2 (Rattus norvegicus), entry Cc1oc2nc(SCCCC(=O)NCCCO)nc(N)c2c1C . Fill in?
-1.7e-05

----------
experiment: inhibitors of E-selectin induction by TNFa, primary screen, imaging, HUVEC, immunofluorescence, MLSMR starter and 10KST1 sets (AID 487); settings: HUVEC TNFalpha-induced E-selectin immunofluorescence imaging, at 2 µM; stronger effect = higher value;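 also: signal is fraction of cell area covered by stained E-selectin grains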
Below is a list of entries, each paired with its recorded inhibition value.
Field: numeric (%). Do not append units.

Solved cases (3 shown):
molecule=CN(C)CCNc1nc(-c2ccco2)c2c(c1C#N)CC(C)(C)OC2 property=inhibition data_value=-15.8
molecule=Cc1[nH]c2ccc3c(ncn3CCC#N)c2c1C property=inhibition data_value=-48.6
molecule=CCOC(=O)CSc1nc(-c2ccncc2)ccc1C#N property=inhibition data_value=-23.4

# input molecule: CC(=O)OCC[N+](C)(C)C ; wanted: its inhibition
-102

# input molecule: CCOC(=O)COc1nc(N(C)C)nc(N(C)C)n1 ; wanted: its inhibition
-349

# input molecule: Cc1cc(C)n(C(=O)CNC(=O)CCc2ccccc2)n1 ; wanted: its inhibition
62.6

# input molecule: CC[C@H](C)C(=O)O[C@H]1C[C@@H](C)C=C2C=C[C@H](C)[C@H](CC[C@@H]3C[C@@H](O)CC(=O)O3)[C@H]21 ; wanted: its inhibition
-93.9

# input molecule: COC(=O)c1ccc(C(=O)OC)c(NC(=O)c2cc3ccccc3o2)c1 ; wanted: its inhibition
15.1

# input molecule: CNC(=O)c1cc2ccccc2o1 ; wanted: its inhibition
-72.9

# input molecule: CC(=O)C1=C(O)C(=O)N(c2ccc(C(=O)O)cc2)C1c1ccccc1 (centres undefined) ; wanted: its inhibition
-53.3

# input molecule: CSc1nnc(N(CCC#N)CCC#N)s1 ; wanted: its inhibition
-46.6

# input molecule: CCCOC(=O)C1[C@H]2C(=O)N(Cc3ccco3)C[C@]23C=C[C@H]1O3 (some centres undefined) ; wanted: its inhibition
-90.3

# input molecule: COc1cccc(C2=CC(c3ccccc3)n3ncnc3N2)c1 (centres undefined) ; wanted: its inhibition
36.2

# input molecule: COc1ccc(CCNC(=O)c2ccc(=O)[nH]n2)cc1OC ; wanted: its inhibition
-124

# input molecule: Cc1cc(C)n(C(=O)CSc2nc3ccccc3o2)n1 ; wanted: its inhibition
-100

# input molecule: COc1ccc(OCC(=O)N2CCN(C(=O)c3cccc4ccccc34)CC2)cc1 ; wanted: its inhibition
-293

# input molecule: CCN1C(=O)CC(N2CCN(c3ccc(OC)cc3)CC2)C1=O (centres undefined) ; wanted: its inhibition
-368

# input molecule: CNC[C@H](O)c1cccc(O)c1 ; wanted: its inhibition
-73.1

# input molecule: Cc1noc(COc2ccccc2OCC(O)CNC(C)(C)C)n1 (centres undefined) ; wanted: its inhibition
-52.1

# input molecule: c1coc(-c2nnc3sc(Cc4cccs4)nn23)c1 ; wanted: its inhibition
60.4

# input molecule: Cc1nn(C)cc1CNC(=O)c1ccc(Br)o1 ; wanted: its inhibition
-66.6

# input molecule: CC(=O)c1c(N)nc2n(c1=O)CCCCC2 ; wanted: its inhibition
-5.5

----------
test: DUSP6 inhibitors restoring Erk phosphorylation by chemical complementation, primary imaging in DUSP6-transfected HeLa (AID 609); settings: HeLa MKP-3 transfected, phospho-Erk imaging KS statistic; measured here: cell density z-score; at 10 µM; cells stimulated with TPA for 15 min
Label Met when z-score is at or above 0.7; anything below gets Not met.

Known results for compounds:
compound=CN1CCc2c(sc3c2c(=O)n(-c2ccccc2)c2nnc(SCc4ccccc4)n32)C1 assigned_class=Met
compound=N#Cc1nc(COc2ccc(Br)cc2)oc1N1CCCC1 assigned_class="Not met"
compound=CC[N+](C)(C)c1cccc(O)c1 assigned_class="Not met"
compound="CCN(CC)CCCN1C(=O)C(=O)/C(=C(/O)c2ccc(Cl)cc2)C1c1ccccn1 (stereo unspecified)" assigned_class="Not met"
compound=Cn1c(=O)c2c(nc(Br)n2CCSc2ncccn2)n(C)c1=O assigned_class="Not met"
compound=Cc1nc2sc3c(NCc4ccco4)ncnc3c2c2c1COC(C)(C)C2 assigned_class="Not met"

Moving on to another compound below.
Reported z-score at or above 0.7? C=CCOc1nc2c(c(=O)n(C)c(=O)n2C)n1Cc1c(Cl)cccc1Cl
Not met

----------
assay: DUSP6 inhibitors restoring Erk phosphorylation by chemical complementation, primary imaging in DUSP6-transfected HeLa (AID 609); conditions: HeLa MKP-3 transfected, phospho-Erk imaging KS statistic; measured here: nuclear c-Myc green intensity z-score; at 10 µM; cells stimulated with TPA for 15 min
PROPERTY: z-score
Answer as a number with no unit attached.

Solved cases (3 shown):
compound="COC(=O)C1=C(C)N=C2SC(C)C(=O)N2C1/C=C/c1ccccc1OC (centres undefined)" data_value=0.498
compound="CCOC(=O)CSC1=C(C#N)C(c2ccc3c(c2)OCO3)CC(=O)N1 (centres undefined)" data_value=0.745
compound=CCSc1nc(N)c2c3c(sc2n1)CCC3 data_value=0.818

# input compound: Cc1c(NC(=O)C(CC(=O)O)NCc2ccco2)c(=O)n(-c2ccccc2)n1C (centres undefined) ; wanted: its z-score
2.03

----------
assay: inhibitors of TNFa-induced NFkB p65 translocation, primary screen, imaging, HUVEC, MLSMR starter and 10KST1 sets (AID 438); conditions: HUVEC TNFa-induced p65 nuclear translocation; measured here: nuclei count (cytotoxicity indicator), at 2.08 µM;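 also: compound added about 3h40 before a 20 min TNFalpha stimulation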
PROPERTY: cell count
Answer as a number with no unit attached.

compound="CCc1[nH]nc2c1C(c1ccc(Br)s1)C(C#N)=C(N)O2 (stereo not given)" data_value=504
compound=CCCOc1cccc(-c2nnc(N)s2)c1 data_value=605
compound=COC(=O)/C=c1/s/c(=C(/C#N)C(=O)N2CCOCC2)n(-c2ccccc2)c1=O data_value=611
compound="CN(C1CCS(=O)(=O)C1)S(=O)(=O)c1cccc2nsnc12 (stereo not given)" data_value=506

# input compound: C=CCn1cnc2c(c1=O)c1nc3ccccc3nc1n2-c1ccc(Cl)cc1 ; wanted: its cell count
479

----------
molecular target: Alpha-2C adrenergic receptor (Homo sapiens) (UniProt P18825); assay: modulators of alpha2C/GIRK thallium flux, primary screen, cell-based, HEK293 alpha2C/GIRK1/2 (AID 624); settings: thallium flux BTC fluorescence, at 10 µM, actives lie on both sides;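 also: slope of fluorescence ratio to pre-addition baseline per second over 15 to 24 s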
Sequence (P18825 whole entry, looked up): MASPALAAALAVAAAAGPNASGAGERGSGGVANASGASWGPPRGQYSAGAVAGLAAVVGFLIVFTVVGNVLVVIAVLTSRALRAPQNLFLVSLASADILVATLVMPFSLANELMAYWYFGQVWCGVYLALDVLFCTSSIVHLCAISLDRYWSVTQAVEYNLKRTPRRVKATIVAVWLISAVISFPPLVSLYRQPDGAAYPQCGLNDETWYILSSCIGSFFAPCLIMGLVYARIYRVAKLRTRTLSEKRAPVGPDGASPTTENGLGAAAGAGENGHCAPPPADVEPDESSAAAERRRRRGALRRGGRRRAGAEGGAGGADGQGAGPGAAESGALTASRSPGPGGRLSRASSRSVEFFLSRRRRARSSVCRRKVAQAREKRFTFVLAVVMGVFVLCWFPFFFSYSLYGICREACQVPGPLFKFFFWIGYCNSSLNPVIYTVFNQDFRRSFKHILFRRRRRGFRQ
PROPERTY: slope
Answer as a number with no unit attached.

Solved cases (4 shown):
molecule=Cc1cc(=O)n2[nH]cnc2n1 property=slope data_value=0.00471
molecule=COc1ccc(C2=Nn3c(nnc3-c3cccnc3)SC2)cc1OC property=slope data_value=0.00709
molecule=COc1ccccc1C(=O)NC(=Nc1nc2ccccc2o1)NC(=O)c1ccccc1OC property=slope data_value=0.0126
molecule=CCCCCCCC(=O)OCC(=O)[C@@]1(O)CC[C@H]2[C@@H]3CCC4=CC(=O)CC[C@]4(C)[C@H]3[C@@H](O)C[C@@]21C property=slope data_value=0.0075

# input molecule: Cc1cc(N2CCN(C3CCCC3)CC2)n2c(nc3ccccc32)c1C#N ; wanted: its slope
0.00579

# input molecule: Cc1ccc(SCc2nnc(N)s2)cc1 ; wanted: its slope
0.00821

# input molecule: CN1CCN(CCC(=O)N2c3ccccc3Sc3ccc(Cl)cc32)CC1 ; wanted: its slope
0.00551
